Readings of logD for the listed compounds
# test description: Experimental LogD (partition coefficient)
# recorded conditions: not stated, Partition Coeff LogD
Positions of bridges follow the written chain, without caps; N, C: chain ends. Non-standard residues stand in square brackets, D forms with d. Residues, ends and D or L forms follow the SMILES beside them. Lys(N3) = [N-]=[N+]=NCCCC[C@H](N)C(=O)O; R8 = C=CCCCCCC[C@@](C)(N)C(=O)O; Cba = N[C@@H](CC1CCC1)C(=O)O; S5 = C=CCCC[C@](C)(N)C(=O)O; βAla = NCCC(=O)O
quantity name: logD

compound: CC(=O)N[C@@H](CCCCN=[N+]=[N-])C(=O)NCCC(=O)N[C@@H](CC(C)C)C(=O)N[C@H](C(=O)N[C@@H](Cc1ccccc1)C(=O)N[C@]1(C)CCCCCCC=CCCC[C@@](C)(C(=O)N[C@H](C)C(=O)N[C@@H](C)C(=O)N[C@@H](C)C(N)=O)NC(=O)[C@H](CC2CCC2)NC(=O)[C@H](CCC(N)=O)NC(=O)[C@H](C)NC(=O)[C@H](Cc2c[nH]c3ccccc23)NC(=O)[C@H](Cc2ccc(O)cc2)NC(=O)[C@H](CCC(=O)O)NC1=O)[C@@H](C)O [MP-475] (Ac-[Lys(N3)][βAla]LTF[R8]EYWAQ[Cba][S5][dA]AA-NH2; staple 6-13)
assay result: 2.92

compound: CC(=O)N[C@@H](CC(C)C)C(=O)N[C@H](C(=O)N[C@@H](Cc1ccccc1)C(=O)N[C@]1(C)CCCCCCC=CCCC[C@@](C)(C(=O)N[C@@H](CO)C(=O)N[C@@H](C)C(=O)N[C@@H](C)C(N)=O)NC(=O)[C@H](CC2CCC2)NC(=O)[C@H](CCC(N)=O)NC(=O)[C@H](CCC(N)=O)NC(=O)[C@H](Cc2c[nH]c3ccccc23)NC(=O)[C@H](Cc2ccc(O)cc2)NC(=O)[C@H](CCC(=O)O)NC1=O)[C@@H](C)O [MP-864] (Ac-LTF[R8]EYWQQ[Cba][S5]SAA-NH2; staple 4-11)
assay result: 2.59

compound: CC(=O)N[C@@H](CCCCN=[N+]=[N-])C(=O)NCCC(=O)N[C@@H](CC(C)C)C(=O)N[C@H](C(=O)N[C@@H](C)C(=O)N[C@]1(C)CCCCCCC=CCCC[C@@](C)(C(=O)N[C@@H](CO)C(=O)N[C@@H](C)C(=O)N[C@@H](C)C(N)=O)NC(=O)[C@H](CC2CCC2)NC(=O)[C@H](CCC(N)=O)NC(=O)[C@H](C)NC(=O)[C@H](Cc2c[nH]c3ccccc23)NC(=O)[C@H](Cc2ccc(O)cc2)NC(=O)[C@H](CCC(=O)O)NC1=O)[C@@H](C)O [MP-892, AZIDE-ATSP-7041 (F3A)]
assay result: 2.54

compound: CC(=O)N[C@@H](CCCCN=[N+]=[N-])C(=O)NCCC(=O)N[C@@H](CC(C)C)C(=O)N[C@H](C(=O)N[C@@H](CO)C(=O)N[C@]1(C)CCCCCCC=CCCC[C@@](C)(C(=O)N[C@@H](CO)C(=O)N[C@@H](C)C(=O)N[C@@H](C)C(N)=O)NC(=O)[C@H](CO)NC(=O)[C@H](CCC(N)=O)NC(=O)[C@H](C)NC(=O)[C@H](CO)NC(=O)[C@H](Cc2ccc(O)cc2)NC(=O)[C@H](CCC(=O)O)NC1=O)[C@@H](C)O [MP-3352] (Ac-[Lys(N3)][βAla]LTS[R8]EYSAQS[S5]SAA-NH2; staple 6-13)
assay result: 1.55
